Measured values drawn from PubChem BioAssay (NCI) for this set.

- Tested on: SW-620 colon
- test_summary: NCI-60 one-dose screen, 48 h
- test_context: 10 µM unless noted
This is part of a sample that, as a whole, favours compounds with a hit. Of some 83,000 tested, about 20% had one in any assay. The source made the active and inactive calls. Rule for the calls: active = growth percent below 10; inactive = the rest.
Your response should consist of one outcome taken from active, inactive

COc1ccc(/C=C(/C#N)n2nnc3cccc(F)c32)cc1
inactive
c1cc(-c2nnc(SSc3ncnc4nc[nH]c34)o2)ccn1
inactive
N#Cc1c(-c2ccc(Cl)cc2)nc(NCCO)[nH]c1=O
inactive
O=CN(SSN(C=O)C1CCCCC1)C1CCCCC1
inactive
CCc1nnc(NC(=O)c2nnn(-c3ccccc3)c2-c2ccco2)s1
inactive

Request: Query: recorded result category for COc1ccc(C2CC(c3ccc(Nc4ccnc5cc(Cl)ccc45)cc3)=NN2C=O)cc1 (stereo unspecified) in this test
Response: inactive

Request: Query: recorded result category for Cc1cc2nc3cc(C)c(N)cc3[n+](-c3ccccc3)c2cc1N in this test
Response: inactive

Request: Query: recorded result category for C#Cc1cccc(NC(=O)Nc2ccccc2NC(=O)CCl)c1 in this test
Response: active

----------
- Tested on: ACHN renal
- test_summary: NCI-60 one-dose screen, 48 h (100 = growth as untreated, 0 = no growth, -100 = all killed)
- test_context: 10 µM unless noted
- Protocol: Growth inhibition of the ACHN human tumor cell line is measured as a screen for anti-cancer activity. Cells are grown in 96 well plates and exposed to the test compound for 48 hours. Compounds are tested at a single concentration, which is 10^-5 M for most compounds. The reported endpoint is percent growth (GI% or GIPRCNT), where numbers from 0 - 100% represent growth inhibition, and numbers from -100% - 0 represent cell death. For example, a value of 40 represents 60% growth inhibition. […]
The panel holds about 83,000 compounds, 20% with a hit somewhere; the sample as a whole holds those more often. Active and inactive are the calls of the source. The calls were made as follows: active = growth percent below 10; inactive = the rest.
observable: growth

Some solved entries appear below for comparison.
NCCNc1nc2ccccc2c2c(=O)c3cc(F)ccc3sc12
54.5% (inactive)
O=C(/C=C/c1sc(Cl)nc1Cl)c1ccc(F)cc1
22.4% (inactive)
C/C(=C(/c1ccccc1)c1ccc(N2C(=O)c3cccc4c(N5CCN(C)CC5)ccc(c34)C2=O)cc1)c1ccccc1
89.5% (inactive)
CC(=O)c1ccc(Nc2nc(C(C)=O)c(C)s2)cc1
100% (inactive)
CCOC(=O)c1cn2ncnc(Oc3ccc(NC(=O)NCCN4CCOCC4)c(Cl)c3)c2c1C
99.5% (inactive)

Request: I am curious: what growth value has been reported for Cc1ccccc1C(=O)NN ?
Response: 106% (inactive)

Request: I am curious: what growth value has been reported for COC(=O)c1ccc2[nH]c(O)c(C(=Nc3ccc(N(C)C(=O)CN4CCN(C)CC4)cc3)c3ccccc3)c2c1 ?
Response: 7.31% (active)

Request: I am curious: what growth value has been reported for O=c1c2cc(F)ccc2sc2c(N3CCNCC3)nc3ccc(F)cc3c12 ?
Response: -41.6% (active)

----------
- System: HCT-116 colon
- test_summary: NCI-60 one-dose screen, 48 h
- test_context: 10 µM unless noted
Compounds without any hit were thinned out: in the full panel of roughly 83,000, 20% have a hit. The source made the active and inactive calls. How the source made its calls: active means growth percent below 10; inactive means the rest.
Your response should consist of one outcome taken from active, inactive

Below, 5 molecules whose answers are already recorded.
CC(=O)Oc1ccccc1C(=O)N=C1[Se]CCCN1C(=O)c1ccccc1OC(C)=O
active
COc1ccc(-c2nc(NCCO)[nH]c(=O)c2C#N)cc1
inactive
Cc1ccc(C(CC(=O)O)c2c(C)[nH][nH]c2=O)cc1 (stereo unspecified)
inactive
Nc1nc2ccccc2c2c(=O)c3cc(F)ccc3sc12
inactive
Brc1c[n+](Cc2ccc3ccccc3c2)cn1Cc1ccc2ccccc2c1
inactive

Here is the next item to consider.
Request: Query: recorded result category for COc1ccc(/C=N/Nc2cc(=O)[nH]c3ccc(C)cc23)cc1 in this test
Response: inactive
